Experimental Target: MEKK1 (Homo sapiens, UniProt Q13233)
Construct: lines 1-140) and Reaction Biology
Sequence (Q13233 whole entry): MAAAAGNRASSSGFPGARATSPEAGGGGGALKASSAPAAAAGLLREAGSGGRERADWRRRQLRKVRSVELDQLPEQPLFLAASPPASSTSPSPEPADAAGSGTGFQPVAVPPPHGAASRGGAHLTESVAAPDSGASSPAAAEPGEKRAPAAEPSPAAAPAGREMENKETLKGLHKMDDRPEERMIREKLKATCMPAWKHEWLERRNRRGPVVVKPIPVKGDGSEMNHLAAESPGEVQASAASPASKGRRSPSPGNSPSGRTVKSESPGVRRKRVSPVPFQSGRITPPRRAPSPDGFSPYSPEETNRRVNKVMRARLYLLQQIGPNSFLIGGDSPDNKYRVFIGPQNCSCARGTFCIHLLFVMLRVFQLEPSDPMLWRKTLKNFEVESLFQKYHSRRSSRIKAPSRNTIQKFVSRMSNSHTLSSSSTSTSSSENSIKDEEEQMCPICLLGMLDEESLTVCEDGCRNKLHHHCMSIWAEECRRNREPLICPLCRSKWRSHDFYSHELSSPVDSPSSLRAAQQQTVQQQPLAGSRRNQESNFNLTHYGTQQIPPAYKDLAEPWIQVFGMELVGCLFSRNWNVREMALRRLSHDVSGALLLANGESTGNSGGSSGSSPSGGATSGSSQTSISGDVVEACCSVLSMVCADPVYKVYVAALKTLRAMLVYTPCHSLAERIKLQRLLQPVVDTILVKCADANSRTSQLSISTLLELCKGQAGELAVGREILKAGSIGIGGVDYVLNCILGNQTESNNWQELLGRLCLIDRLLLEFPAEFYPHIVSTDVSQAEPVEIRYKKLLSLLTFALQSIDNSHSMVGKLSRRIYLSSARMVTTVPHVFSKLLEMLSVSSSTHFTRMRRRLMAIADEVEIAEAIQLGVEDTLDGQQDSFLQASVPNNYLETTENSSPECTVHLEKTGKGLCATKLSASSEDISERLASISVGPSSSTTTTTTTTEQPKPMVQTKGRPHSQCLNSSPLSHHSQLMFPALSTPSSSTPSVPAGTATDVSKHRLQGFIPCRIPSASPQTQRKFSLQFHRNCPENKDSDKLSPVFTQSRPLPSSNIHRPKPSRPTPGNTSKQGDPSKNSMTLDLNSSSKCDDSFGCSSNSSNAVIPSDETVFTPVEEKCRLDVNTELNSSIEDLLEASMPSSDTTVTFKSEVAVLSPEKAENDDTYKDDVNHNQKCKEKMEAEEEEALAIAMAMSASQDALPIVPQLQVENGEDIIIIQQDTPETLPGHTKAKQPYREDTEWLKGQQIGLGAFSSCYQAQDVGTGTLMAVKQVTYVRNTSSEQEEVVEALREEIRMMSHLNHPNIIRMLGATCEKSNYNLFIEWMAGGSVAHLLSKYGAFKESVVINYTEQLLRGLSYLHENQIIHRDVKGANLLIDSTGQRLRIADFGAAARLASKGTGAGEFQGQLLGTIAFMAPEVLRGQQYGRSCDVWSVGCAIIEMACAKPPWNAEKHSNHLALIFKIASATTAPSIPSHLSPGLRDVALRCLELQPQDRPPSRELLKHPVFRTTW
Method Description: Dundee kinase panel
Format: biochemical
Run Parameters: read-out: residual activity
remaining activity at 1 µM overview
Write it as a number; the unit % goes unstated.

Solved cases (3 shown):
The molecule listed as O=C1Nc2ccc(I)cc2/C1=C/c1cc(Br)c(O)c(Br)c1 [GW5074] shows remaining activity at 1 µM equal to 5

Form: molecule = O=C1Cc2c([nH]c3ccc(Br)cc23)-c2ccccc2N1 [Kenpaullone] ; remaining activity at 1 µM = 5

Documented remaining activity at 1 µM of Oc1ncnc2c1c(-c1ccccc1)cn2-c1ccccc1 [F1386-0303] : 97

Others:
Sample COCCOc1ccc(-c2cn(-c3ccccc3)c3nc[nH]c(=O)c23)cc1 [DMX-5804] ; remaining activity at 1 µM observed: 111

* * *

Experimental Target: PAK4 (Homo sapiens)
Construct: lines 1-140) and Reaction Biology
Sequence (O96013 whole entry): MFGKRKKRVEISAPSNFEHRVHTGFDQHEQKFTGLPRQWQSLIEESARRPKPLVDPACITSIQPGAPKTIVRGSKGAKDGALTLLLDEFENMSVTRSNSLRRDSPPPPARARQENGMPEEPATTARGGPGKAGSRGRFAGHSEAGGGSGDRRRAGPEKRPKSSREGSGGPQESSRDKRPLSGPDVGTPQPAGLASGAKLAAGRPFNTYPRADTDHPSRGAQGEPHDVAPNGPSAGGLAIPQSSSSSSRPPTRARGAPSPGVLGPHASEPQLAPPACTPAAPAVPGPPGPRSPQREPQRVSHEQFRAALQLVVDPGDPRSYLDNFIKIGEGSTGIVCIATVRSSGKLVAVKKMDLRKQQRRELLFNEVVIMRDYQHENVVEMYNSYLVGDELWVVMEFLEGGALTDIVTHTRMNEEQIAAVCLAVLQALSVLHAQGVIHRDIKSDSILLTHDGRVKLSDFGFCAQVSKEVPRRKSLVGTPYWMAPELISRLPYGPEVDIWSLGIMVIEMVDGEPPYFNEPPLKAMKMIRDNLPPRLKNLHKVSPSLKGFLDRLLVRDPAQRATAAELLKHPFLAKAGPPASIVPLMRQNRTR
Method Description: Dundee kinase panel
Type: biochemical
Run Parameters: read-out: residual activity
Below is a list of entries, each paired with its recorded remaining activity at 1 µM value.
Form entry: enter the amount, then its unit.

Kindly note: PAK4 (Homo sapiens), O=C1Cc2c([nH]c3ccc(Br)cc23)-c2ccccc2N1 [Kenpaullone] , remaining activity at 1 µM value reported: 104%

Field remaining activity at 1 µM (system: PAK4 (Homo sapiens)) for entry O=C1Nc2ccc(I)cc2/C1=C/c1cc(Br)c(O)c(Br)c1 [GW5074] = 94%

Continuing:
Record for Oc1ncnc2c1c(-c1ccccc1)cn2-c1ccccc1 [F1386-0303] under target or system PAK4 (Homo sapiens): remaining activity at 1 µM reported as 105%

remaining activity at 1 µM of COCCOc1ccc(-c2cn(-c3ccccc3)c3nc[nH]c(=O)c23)cc1 [DMX-5804] , assay on PAK4 (Homo sapiens), is 100%

* * *

Readings of remaining activity at 1 µM for the listed compounds
Experimental Target: MAPKAP-K2 (Homo sapiens, UniProt P49137)
Construct: lines 1-140) and Reaction Biology
Sequence (P49137 whole entry): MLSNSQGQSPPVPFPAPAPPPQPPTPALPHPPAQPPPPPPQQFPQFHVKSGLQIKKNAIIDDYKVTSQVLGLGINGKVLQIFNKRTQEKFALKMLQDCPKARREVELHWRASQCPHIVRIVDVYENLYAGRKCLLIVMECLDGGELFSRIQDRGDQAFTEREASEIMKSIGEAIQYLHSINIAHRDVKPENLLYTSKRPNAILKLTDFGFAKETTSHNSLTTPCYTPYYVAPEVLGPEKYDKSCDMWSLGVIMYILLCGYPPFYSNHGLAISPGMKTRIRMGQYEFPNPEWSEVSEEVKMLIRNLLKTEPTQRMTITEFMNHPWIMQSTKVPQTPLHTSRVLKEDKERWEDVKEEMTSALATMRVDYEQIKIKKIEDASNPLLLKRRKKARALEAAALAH
Method Description: Dundee kinase panel
Format: biochemical
Run Parameters: read-out: residual activity
State the answer as a number, implicitly in %.

Record O=C1Nc2ccc(I)cc2/C1=C/c1cc(Br)c(O)c(Br)c1 [GW5074] , field remaining activity at 1 µM: 81

* * *

Experimental Target: MKK1 (Homo sapiens, UniProt Q02750)
Construct: lines 1-140) and Reaction Biology
Sequence (Q02750 whole entry): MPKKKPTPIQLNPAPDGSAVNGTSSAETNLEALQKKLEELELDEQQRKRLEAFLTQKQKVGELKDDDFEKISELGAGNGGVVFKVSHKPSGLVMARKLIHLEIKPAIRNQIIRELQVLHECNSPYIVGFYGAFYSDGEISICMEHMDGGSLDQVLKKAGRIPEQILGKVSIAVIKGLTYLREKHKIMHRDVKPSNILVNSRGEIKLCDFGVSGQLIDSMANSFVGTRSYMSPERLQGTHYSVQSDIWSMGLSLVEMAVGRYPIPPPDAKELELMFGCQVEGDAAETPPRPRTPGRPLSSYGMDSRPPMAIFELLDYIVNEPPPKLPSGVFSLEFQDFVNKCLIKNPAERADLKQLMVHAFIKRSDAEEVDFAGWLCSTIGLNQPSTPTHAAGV
Method Description: Dundee kinase panel
Assay type: biochemical
Run Parameters: read-out: residual activity
Description: Compounds were screened at 1 μM. For key hits, pIC50 values were then determined by HTRF as above. […] Stability in mouse and human liver microsomes was determined by Cyprotex.
Assay Metric: remaining activity at 1 µM (%)
Write the number in % without appending the unit.

Before answering, review these 3 worked examples.
In plain terms, O=C1Cc2c([nH]c3ccc(Br)cc23)-c2ccccc2N1 [Kenpaullone] has a documented remaining activity at 1 µM of 97

Per the records, this molecule ( COCCOc1ccc(-c2cn(-c3ccccc3)c3nc[nH]c(=O)c23)cc1 [DMX-5804] ) has remaining activity at 1 µM equal to 113

Reported remaining activity at 1 µM ( Oc1ncnc2c1c(-c1ccccc1)cn2-c1ccccc1 [F1386-0303] ) = 101

Further cases:
What the record says about O=C1Nc2ccc(I)cc2/C1=C/c1cc(Br)c(O)c(Br)c1 [GW5074] : remaining activity at 1 µM is 80
